- assay_method_text: Leishmania major promastigote growth inhibition, primary screen (AID 1063);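 also: promastigotes grown with compound for 44 hours at 28 °C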
- test_settings: Leishmania major promastigotes, resazurin fluorescence viability; at 10 µM
Among all 200,000 compounds or so, about 18,000 (9%) were called active. Rule as the data show it: active = inhibition above about 50%; inactive = the rest. The sample holds actives, similar compounds and a random draw of the others, so the mix is not that of the screen.
Possible outcomes: active, inactive

{"molecule": "O=[N+]([O-])c1ccc(C=Nc2ccc(Cl)cc2Cl)s1", "group": "active"}
{"molecule": "COc1ccc(Cl)cc1NC(=O)CN(C)Cc1ccc(OC)c(OC)c1", "group": "inactive"}
{"molecule": "Cc1ccc(CN2CCN(Cc3ccccc3-c3ccco3)CC2CCO)o1 (configuration not stated)", "group": "inactive"}
{"molecule": "CCOC(=O)C1CCN(C(c2cc3cc(C)cc(C)c3[nH]c2=O)c2nnnn2C2CCCCC2)CC1 (configuration not stated)", "group": "active"}
{"molecule": "CN1CCN(CCC(=O)N/N=C/C=C2\\N(C)c3ccccc3C2(C)C)CC1", "group": "inactive"}
{"molecule": "CCOc1ccc2[nH]c(=O)c(C(c3nnnn3CCOC)N3CCOCC3)cc2c1 (configuration not stated)", "group": "inactive"}
{"molecule": "Cc1nc2ccc(NC(=S)N3CCC(C)CC3)cc2nc1C", "group": "inactive"}
{"molecule": "CCCC1(C(=O)OC)NC(c2ccco2)C2C(=O)N(C)C(=O)C21 (configuration not stated)", "group": "inactive"}
{"molecule": "Cc1nccn1CC(=O)N/N=C/c1ccc(O)c(O)c1", "group": "inactive"}
{"molecule": "COc1ccc(C(=O)NC2CCN(C(=S)Nc3ccccc3)CC2)cc1", "group": "inactive"}
{"molecule": "Cc1ccccc1OCc1nnc(SCC(=O)N2c3ccccc3Sc3ccc(Cl)cc32)o1", "group": "inactive"}
{"molecule": "CC1(c2cccc([N+](=O)[O-])c2)CC(C)(C)N(C(=O)c2ccccc2)c2ccccc21 (configuration not stated)", "group": "inactive"}
{"molecule": "FC(F)(F)c1cccc(N/N=C/c2ccccc2)c1", "group": "inactive"}
{"molecule": "COc1ccccc1NC(=S)N1CCN(C(c2ccccc2)c2ccccc2)CC1", "group": "active"}
{"molecule": "Oc1ccc(/C=N/Nc2ccc(C(F)(F)F)cn2)cc1O", "group": "active"}
{"molecule": "CC1CCN(C(=S)c2cccc([N+](=O)[O-])c2)CC1", "group": "inactive"}
{"molecule": "COc1ccc(CCNC(=O)CC2SC(=Nc3cc(C)cc(C)c3)NC2=O)cc1OC (configuration not stated)", "group": "inactive"}
{"molecule": "CCOC(=O)c1cc2n(c1N)-c1ccccc1C2=O", "group": "inactive"}
{"molecule": "Cc1ccccc1CN1C[C@@H]2C[C@@H](c3ccc4nsnc4c3)N3CCC[C@@]23C1=O", "group": "active"}
{"molecule": "COCCNC(=S)N1CCC(NC(=O)C23CC4CC(CC(C4)C2)C3)CC1", "group": "active"}
{"molecule": "CC(NC(=O)COC(=O)c1ccc(Cl)cc1O)c1ccc(F)cc1 (configuration not stated)", "group": "inactive"}
{"molecule": "CCOC(=O)c1c(C)[nH]c(=S)c(C#N)c1-c1ccccc1", "group": "inactive"}
{"molecule": "COCCn1nnnc1C(c1ccccc1Cl)N1CCN(c2ccccc2OC)CC1 (configuration not stated)", "group": "inactive"}
{"molecule": "COc1ccc(-c2cc(C(=O)NCCCn3ccnc3)no2)cc1", "group": "inactive"}
{"molecule": "OC(c1nnc(-c2ccccc2)o1)c1cccs1 (configuration not stated)", "group": "inactive"}
{"molecule": "CC(C)NC(=S)N1CCN(C(c2ccccc2)c2ccccc2)CC1", "group": "inactive"}
{"molecule": "O=C(CSc1nc2ccccc2o1)N1c2ccccc2Sc2ccc(Cl)cc21", "group": "active"}
{"molecule": "CCOC(=O)N1CCN(C(=S)Nc2ccc(C)cc2C)CC1", "group": "inactive"}
{"molecule": "CCOC(=O)C(=Cc1ccccc1OC)C(=O)OCC", "group": "active"}
{"molecule": "Cc1cc(C)c2[nH]c(=O)c(C(c3nnnn3Cc3ccc4c(c3)OCO4)N3CCCC3)cc2c1 (configuration not stated)", "group": "inactive"}
{"molecule": "OCCC1CN(Cc2cccc(O)c2)CCN1CCc1ccccc1 (configuration not stated)", "group": "inactive"}
{"molecule": "CCc1cc2c(=O)c(-c3ccc(F)cc3)c(C(F)(F)F)oc2cc1OCC(=O)O", "group": "inactive"}
